- Test system: A/Parma/05/06 H3N2 (Wisconsin-like)
- assay_explanation: microbe, parasite or virus in culture
- Format: cell-based, Influenza A virus
measured_endpoint: SI (selectivity index) = CC50/EC50, A/Parma H3N2

For orientation, consider the following solved cases.
Cc1ccc(NC(=O)COC(=O)c2ccccn2)cc1F [Compound 13] : 0.62 × 10^2
O=C(CC1(O)C(=O)Nc2ccccc21)c1ccccn1 (stereo not drawn) [Compound 6] : 1.04 × 10^2
Cc1ccc(S(=O)(=O)NC(C)c2ccc(-n3ccnc3)cc2)cc1C (stereo not drawn) [Compound 1] : 3 × 10^3
COc1ccc(S(=O)(=O)NCc2ccc(-n3ccnc3)cc2)cc1F [Compound 25] : 0.39 × 10^2
N#Cc1ccc(NC(=O)COC(=O)c2ccccn2)cc1 [Compound 7] : 0.44 × 10^2

Input Cc1ccc(F)cc1NC(=O)COC(=O)c1ccc2ccccc2n1 [Compound 4] . Output SI (selectivity index) = CC50/EC50, A/Parma H3N2: 2 × 10^3

* * *

- assay_explanation: Cytotoxicity assay
- Assay type: cell-based, canine
- assay_conditions: dog, MDCK cells (confluent); read-out: CC50 cytotoxic concentration 50%
measured_endpoint: CC50

For orientation, consider the following solved cases.
Cc1ccc(S(=O)(=O)NC(C)c2ccc(-n3ccnc3)cc2)cc1C (stereo not drawn) : 300 µM
N#Cc1ccc(NC(=O)COC(=O)c2ccccn2)cc1 : 31.2 µM

Input Cc1ccc(NC(=O)COC(=O)c2ccccn2)cc1F . Output CC50: 31.2 µM

Input Cc1ccc(F)cc1NC(=O)COC(=O)c1ccc2ccccc2n1 . Output CC50: 250 µM

Input COc1ccc(S(=O)(=O)NCc2ccc(-n3ccnc3)cc2)cc1F . Output CC50: 31.2 µM

Input O=C(CC1(O)C(=O)Nc2ccccc21)c1ccccn1 (stereo not drawn) . Output CC50: 31.2 µM

* * *

- Tested on: A/Parma/05/06 H3N2 (Wisconsin-like)
- assay_explanation: microbe, parasite or virus in culture
- Assay type: cell-based, Influenza A virus
- assay_conditions: Influenza A virus, H3N2, MDCK, 48 h, read-out: EC50 A/Parma H3N2
Each entry below carries its reported pEC50.
The meaning of pEC50 here: minus log10 of the concentration in molar units.

For orientation, consider the following solved cases.
N#Cc1ccc(NC(=O)COC(=O)c2ccccn2)cc1 [Compound 7] : 6.15
Cc1ccc(F)cc1NC(=O)COC(=O)c1ccc2ccccc2n1 [Compound 4] : 6.90
Cc1ccc(S(=O)(=O)NC(C)c2ccc(-n3ccnc3)cc2)cc1C (stereo not shown) [Compound 1] : 7.01

API: the following record is the query input.
Input O=C(CC1(O)C(=O)Nc2ccccc21)c1ccccn1 (stereo not shown) [Compound 6] . Output pEC50: 6.52
